- TEST: folding enthalpy; higher = less favourable; fluorescence melt of hairpins on a sequencing array, two-state fit
- ASSAY_CONDITIONS: sodium 0.088 M
Give 1 when the value for folding enthalpy is at least -30 kcal/mol. Give -1 when it is less.

- GCAGAGCGAAAGCTATGC (((.(((....))).))): -1
- GATTCTGGAAACGGAATC (((((.(....).))))): -1
- GCTGACCCGAAAGGGAGC (((..(((....)))))): 1
- GAGACCGCGAAAGCGCTC (((..(((....)))))): 1
- GATCGAAATCTCGATC ((((((....)))))): -1
- GATCGGCGCTCCGATC ((((((....)))))): -1
- GTGGGTGGAAACGCCTAC ((.((.(....).)).)): 1
- GATCTTGATTAAGATC ((((((....)))))): 1
- GCTGTTGAAAAACAGC ((((((....)))))): -1
- GATCACGAAAGTGGGATC ((((((....)))..))): 1
- GGTTCCGAAAGGAGACC ((((((....))).))): 1
- GTGGATGGAAACATCCGC (.(((((....))))).): 1
- GAGAACGAAAGTTCACTC ((((((....)))..))): 1
- GGAGCTCCGAAAGGATCC (((..(((....)))))): 1
- GACTTAGGAAACTGAGTC ((((.((....)).)))): -1
- GCAAGCGAAAGCTCGTGC ((((((....)))..))): 1
- GGATGCGGAAACGCGTCC (((.(((....))).))): -1
- GCCCACCGAAAGGTGGC (((.(((....)))))): 1

----------
Parameter Tm: see the listing below.
- TEST: melting temperature; fluorescence melt of hairpins on a sequencing array, two-state fit, raised by 9.35 °C to match UV melts
- ASSAY_CONDITIONS: sodium 0.088 M
READOUT_TYPE: Tm (°C)

• GCAACCACGAAAGTGTGC (((..(((....)))))) = 41.7
• GGAAGCTCGAAAGAGTCC (((..(((....)))))) = 26.2
• GATCTTCGGAAGATC ((((((...)))))) = 41.9
• GGCACTGGAAACAGTGTC (.(((((....))))).) = 54.1
• GGCAACCCGAAAGGGGCC (((..(((....)))))) = 55.4
• GCTCTGCGAAAGCATCGC ((..(((....)))..)) = 35.4
• GGACTTGGAAACAAGTTC (.(((((....))))).) = 47.5
• GTAGCCCGAAAGGGATAC (((.(((....))).))) = 64.3
• GGATTCGAAAGAACTTCC ((((((....)))..))) = 28.4
• CGGTGACGGAAACGTCCG (((..(((....)))))) = 44.3
• GGACCAGGAAACTGGCCC ((.((((....)))).)) = 52.3
• GCGCTGCGAAAGCTACGC (((..((....))..))) = 55.8
• GCTCAGCGAAAGCTCCGC ((..(((....)))..)) = 22.4
• GGAATCACGAAAGTGTCC (((..(((....)))))) = 30.5
• GTGATGGGAAACCACCAC (((.(((....))).))) = 42.3
• GGTCTTCGAAAGAAAACC (((.(((....))).))) = 35.2
• ACTGGGAAACCAGT (((((....))))) = 47.6
• GATCTACGATTAGATC ((((((....)))))) = 34.9
• GTCGTTCGAAAGAAGGAC (((.(((....))).))) = 52.2
• GGTTTGGGAAACCAAACC (((((((....))))))) = 64.6
• GACCTAGGAAACTGGGTC ((((.((....)).)))) = 49.6
